FYI, the data here is from the Human Domainome abundance scans (Beltran et al. 2025).

B1: SAM and SH3 domain-containing protein 1, residues 630 to 700; numbered along this chain, O94885 (parent)
chain: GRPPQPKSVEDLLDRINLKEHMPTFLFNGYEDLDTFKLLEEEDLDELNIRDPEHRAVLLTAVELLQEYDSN

Variants of: B1
Test: abundance fitness (aPCA) (normalised: wild type 0, dead -1); higher = more abundant; growth selection in yeast, the domain comes from the species named
Details: Homo sapiens
Each entry below lists one item and its recorded abundance fitness value.
Number, no unit, nothing else.

Would you please look over these solved cases?
1) D34Q ... -0.116
2) N71W ... -0.256
3) K7A ... -0.066
4) Q66S ... -0.331
5) F25K ... -0.784
6) L13Y ... -0.905

Query abundance fitness for P6N
-0.792
